# Read-out: urokinase plasminogen activator (uPA), PLAU (gene 5328)
# assay.protocol: BSK_BE3C_uPA: BioMAP Diversity Plus: BE3C Assay for urokinase plasminogen activator (uPA) Biomarker Activity (AID 2283038)
# study.conditions: primary human bronchial epithelial cells; actives raise or lower the signal
The source made the active and inactive calls. Rule for the calls: active = hit-call score of the fitted dose curve at least 0.9, where 1 is the maximum; inactive = score below 0.9.
Choose the fitting class; nothing outside active, inactive is accepted.

O=C(O)C(F)(F)C(F)(F)C(F)(F)C(=O)O | inactive
C=CC(=O)OCCC(F)(F)C(F)(F)C(F)(F)C(F)(F)F | inactive
NC(=O)C(F)(F)C(F)(F)C(F)(F)C(F)F | inactive
OCC(O)CC(F)(F)C(F)(F)C(F)(F)C(F)(F)C(F)(F)C(F)(F)C(F)(F)C(F)(F)F (configuration not stated) | inactive
Cc1ccc(S(=O)(=O)C(I)I)cc1 | active
CCN(CC)c1ccc(C=O)c(O)c1 | inactive

Query block: State the result this test recorded for "O=C1C=CC(=O)N1c1ccc(Cc2ccc(N3C(=O)C=CC3=O)cc2)cc1" .
Result block: active

Query block: For "CCN(CC)c1ccc(N=Nc2ccccc2)cc1" , which call appears in the assay record?
Result block: inactive

Query block: # outcome recorded in this test, key = "C[Si](Cl)(Cl)CCC(F)(F)C(F)(F)C(F)(F)C(F)(F)C(F)(F)C(F)(F)F"
Result block: inactive

Query block: Could you please tell me the result logged for "NC(=O)C(F)(F)C(F)(F)C(F)(F)C(F)(F)C(N)=O" in this assay?
Result block: inactive

Query block: Which outcome was assigned to "OC(O)C(F)(F)C(F)(F)F" in this test?
Result block: inactive

Query block: State the result this test recorded for "CCOC(C=C(C)CCC=C(C)C)OCC" .
Result block: inactive

---

# Read-out: Interleukin-6 (IL6), IL6 (gene 3569)
# assay.protocol: BSK_CASM3C_IL6: BioMAP Diversity Plus: CASM3C Assay for Interleukin-6 (IL6) Biomarker Activity for (AID 2283040)
# study.conditions: primary human coronary artery smooth muscle cells; actives raise or lower the signal
Calls of active or inactive are those of the source. Rule for the calls: active = hit-call score of the fitted dose curve at least 0.9, where 1 is the maximum; inactive = score below 0.9.
Output constraint: value belongs to active, inactive

Study these solved cases before continuing.
OCC(F)(F)C(F)(F)C(F)(F)C(F)(F)C(F)(F)C(F)(F)CO | inactive
O=S(=O)(O)CCC(F)(F)C(F)(F)C(F)(F)C(F)(F)F | inactive
O=S(=O)(Cl)C(F)(F)C(F)(F)C(F)(F)C(F)(F)C(F)(F)C(F)(F)C(F)(F)C(F)(F)F | inactive

Query block: I would be grateful if you could indicate the recorded call for OCC(O)CC(F)(F)C(F)(F)C(F)(F)C(F)(F)F (stereo unspecified) .
Result block: inactive

Query block: Recorded test call requested for "OCC(F)(F)C(F)(F)C(F)(F)CO"
Result block: inactive

Query block: For "C=C(C)C(=O)OCC(F)(F)C(F)(F)C(F)(F)C(F)F" , which call appears in the assay record?
Result block: inactive

Query block: // return assay outcome for "OCC(F)(F)C(F)(F)C(F)(F)C(F)(F)C(F)(F)C(F)(F)C(F)(F)C(F)(F)CO"
Result block: inactive

Query block: Would you mind telling me which call this test gave "O=C(F)C1(F)C(F)(F)C(F)(F)C(F)(F)C(F)(F)C1(F)F" ?
Result block: inactive

Query block: Status in this test for "NC(=O)C(F)(F)C(F)(F)C(F)(F)F" ?
Result block: inactive

Query block: # fetch the recorded call for "CN(C(=O)C(F)(F)C(F)(F)C(F)(F)F)[Si](C)(C)C" here
Result block: inactive

Query block: What did the test return for "C=CC(=O)OCCC(F)(F)C(F)(F)C(F)(F)C(F)(F)F" ?
Result block: inactive

Query block: What call does the record list for "CO[Si](C)(CCC(F)(F)C(F)(F)C(F)(F)C(F)(F)C(F)(F)C(F)(F)F)OC" ?
Result block: inactive

Query block: Dear colleague, could you share the recorded outcome for "O=C(Cl)C(F)(F)C(F)(F)C(F)(F)C(F)(F)C(F)(F)C(F)(F)F" when you have a moment?
Result block: inactive

Query block: Fill in: this test's call for "Cc1ccc(O)c(-n2nc3ccccc3n2)c1" is ___
Result block: inactive

Query block: Query: recorded result category for "CNS(=O)(=O)C(F)(F)C(F)(F)C(F)(F)C(F)(F)C(F)(F)C(F)(F)C(F)(F)C(F)(F)F" in this test
Result block: inactive

Query block: Query: recorded result category for "CCN=C1C=CC(=C(c2ccc(N(CC)CC)cc2)c2ccc(N(CC)CC)cc2)c2ccccc21" in this test
Result block: inactive

Query block: Record request — test call for COC(F)(C(F)F)C(F)(F)F (stereo unspecified)
Result block: inactive

Query block: Could you check what this test reported for "NCC(F)(F)C(F)(F)C(F)(F)C(F)(F)C(F)(F)C(F)(F)C(F)(F)C(F)(F)F" ?
Result block: inactive

Query block: Record request — test call for "C=CC(=O)OCC(F)(F)C(F)(F)C(F)(F)C(F)(F)C(F)(F)C(F)(F)C(F)(F)C(F)F"
Result block: inactive

Query block: What outcome does the record of this test show for "CCN(CCO)S(=O)(=O)C(F)(F)C(F)(F)C(F)(F)C(F)(F)C(F)(F)C(F)(F)C(F)(F)C(F)(F)F" ?
Result block: inactive

Query block: Per the records of this test, what outcome belongs to "O=C1C=CC(=O)N1c1ccc(Cc2ccc(N3C(=O)C=CC3=O)cc2)cc1" ?
Result block: active

Origin of measurements: PubChem BioAssay (EPA / NIEHS)
